- Read-out: Interleukin-8 (IL8), CXCL8 (gene 3576)
- Test method notes: BSK_CASM3C_IL8: BioMAP Diversity Plus: CASM3C Assay for Interleukin-8 (IL8) Biomarker Activity (AID 2283042);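 further: IL-8 protein level quantified by ELISA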
- Setup conditions: primary human coronary artery smooth muscle cells; actives raise or lower the signal
Activity calls are given as the source filed them. How the source made its calls: active means hit-call score of the fitted dose curve at least 0.9, where 1 is the maximum; inactive means score below 0.9.
Reply using exactly one outcome from Yes for active, No for inactive

[Q] Please share the test call associated with `CCc1cccc(CC)c1N` .
[A] No

[Q] Same thing, different molecule: `CCCCCCCCN(C)C`
[A] No

[Q] Same thing, different molecule: `CC(=O)c1ccccc1`
[A] No

[Q] Same thing, different molecule: `CC(C)c1nnc2ccc(-c3ocnc3-c3cc(F)ccc3F)cn12`
[A] Yes

[Q] Same thing, different molecule: CC(C)CCCCCCOC(=O)C1CCCCC1C(=O)OCCCCCCC(C)C (stereo not given)
[A] No

[Q] Same thing, different molecule: `NCC(F)(F)C(F)(F)C(F)(F)C(F)(F)F`
[A] No

[Q] Same thing, different molecule: `Cc1ncc([C@@H](CCCCCCc2ccc3c(n2)NCCC3)CC(=O)O)cn1`
[A] No

[Q] Same thing, different molecule: `S=P(N1CC1)(N1CC1)N1CC1`
[A] No

[Q] Same thing, different molecule: `O=C(O)c1ccc2c(c1)nc(C(=O)NC1CCN(C3CC3)CC1)n2Cc1cc(-c2ccc(Cl)s2)on1`
[A] No

[Q] Same thing, different molecule: `O=C(O)c1cccc(C(=O)O)c1`
[A] No

[Q] Same thing, different molecule: `NC(N)=O`
[A] No

[Q] Same thing, different molecule: `CCc1ccc(O)c(C(C)(C)C)c1`
[A] No

[Q] Same thing, different molecule: `C[C@]12C=CC(=O)C=C1CC[C@H]1[C@@H]3C[C@@H](O)[C@](O)(C(=O)CO)[C@@]3(C)C[C@H](O)[C@@]12F`
[A] Yes

[Q] Same thing, different molecule: `CCCc1ccccc1`
[A] No

[Q] Same thing, different molecule: `COS(C)(=O)=O`
[A] No

[Q] Same thing, different molecule: `CC(C)C(=O)Nc1ccc([N+](=O)[O-])c(C(F)(F)F)c1`
[A] No

[Q] Same thing, different molecule: `FC(F)(F)C(F)(F)C(F)(F)C(F)(F)C(F)(F)C(F)(F)I`
[A] No

[Q] Same thing, different molecule: CC(C)CC(C)O (stereo not given)
[A] No

[Q] Same thing, different molecule: `CCCCOC(=O)c1ccccc1`
[A] No

[Q] Same thing, different molecule: `c1ccc2c(c1)-c1cccc3c1c-2cc1ccccc13`
[A] No

###

- Read-out: solute carrier (SLC22A1), SLC22A1 (gene 6580)
- Test method notes: LTEA_HepaRG_SLC22A1: Life Technologies and Expression Analysis (LTEA) Assay for solute carrier (SLC22A1) using HepaRG (AID 2283524)
- Setup conditions: mRNA level, 48 h; actives raise or lower the signal
Calls of active or inactive are those of the source. Rule for the calls: active = hit-call score of the fitted dose curve at least 0.9, where 1 is the maximum; inactive = score below 0.9.
Reply using exactly one outcome from y = active, n = inactive

[Q] Please share the test call associated with `O=S1(=O)CCCO1` .
[A] n

[Q] Same thing, different compound: `O=C(NO)C1(NS(=O)(=O)c2ccc(Oc3ccc(F)cc3)cc2)CCOCC1`
[A] y

[Q] Same thing, different compound: `CC1(C)C(=O)N(Cl)C(=O)N1Cl`
[A] n

[Q] Same thing, different compound: CCCCC(CC)C(=O)OCCOCCOCCOC(=O)C(CC)CCCC (stereo unspecified)
[A] n

[Q] Same thing, different compound: `CC(C)C(=O)Nc1ccc([N+](=O)[O-])c(C(F)(F)F)c1`
[A] y

[Q] Same thing, different compound: `CCCc1ccccc1`
[A] n

[Q] Same thing, different compound: `OC[C@H]1O[C@@H]2O[C@H]3[C@H](O)[C@@H](O)[C@@H](O[C@H]4[C@H](O)[C@@H](O)[C@@H](O[C@H]5[C@H](O)[C@@H](O)[C@@H](O[C@H]6[C@H](O)[C@@H](O)[C@@H](O[C@H]7[C@H](O)[C@@H](O)[C@@H](O[C@H]1[C@H](O)[C@H]2O)O[C@@H]7CO)O[C@@H]6CO)O[C@@H]5CO)O[C@@H]4CO)O[C@@H]3CO`
[A] n

[Q] Same thing, different compound: `CCCCCCCCCCCCCCO`
[A] n

[Q] Same thing, different compound: `OCCNCCO`
[A] y

[Q] Same thing, different compound: `CCCCCCCC/C=C\CCCCCCCC(=O)OC[C@@H](O)[C@H]1OC[C@H](O)[C@H]1O`
[A] n

[Q] Same thing, different compound: `CCCC(CCC)C(=O)O`
[A] n

[Q] Same thing, different compound: `CNC(C)=O`
[A] n

[Q] Same thing, different compound: `CCCCOC(=O)c1ccccc1`
[A] n

[Q] Same thing, different compound: `O=S(=O)(O)c1ccc(N=Nc2c(O)ccc3cc(S(=O)(=O)O)ccc23)cc1`
[A] n

[Q] Same thing, different compound: `O=C(O)c1cccc(C[C@@H]2COc3ccc(OCc4nc5cc(F)ccc5s4)cc3[C@@H]2O)c1`
[A] y

[Q] Same thing, different compound: `CCCCCOC(C)=O`
[A] n

###

- Read-out: Thrombomodulin, THBD (gene 7056)
- Test method notes: BSK_CASM3C_Thrombomodulin: BioMAP Diversity Plus: CASM3C Assay for Thrombomodulin Biomarker Activity (AID 2283051);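 further: thrombomodulin protein level measured by ELISA 24 h after dosing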
- Setup conditions: primary human coronary artery smooth muscle cells; actives raise or lower the signal
Activity calls are given as the source filed them. How the source made its calls: active means hit-call score of the fitted dose curve at least 0.9, where 1 is the maximum; inactive means score below 0.9.
Reply using exactly one outcome from active, inactive

[Q] Please share the test call associated with `CNC(C)=O` .
[A] inactive

[Q] Same thing, different molecule: CCCCC(CC)C(=O)OCCOCCOCCOC(=O)C(CC)CCCC (stereo not drawn)
[A] active

[Q] Same thing, different molecule: `OCc1ccccc1`
[A] inactive

[Q] Same thing, different molecule: CC(C)CC(C)O (stereo not drawn)
[A] inactive

[Q] Same thing, different molecule: `C[C@@H](Oc1ccc(CNC(=O)c2cccnc2Oc2ccc3c(c2)OCO3)c(F)c1)C(=O)O`
[A] inactive

[Q] Same thing, different molecule: `c1ccc2cc3ccccc3cc2c1`
[A] inactive

[Q] Same thing, different molecule: `C=CCc1cc(S(=O)(=O)c2ccc(O)c(CC=C)c2)ccc1O`
[A] inactive

[Q] Same thing, different molecule: `NNC(=O)c1ccncc1`
[A] inactive

###

- Read-out: Vascular cell adhesion molecule 1 (VCAM1), VCAM1 (gene 7412)
- Test method notes: BSK_LPS_VCAM1: BioMAP Diversity Plus: LPS Assay for Vascular cell adhesion molecule 1 (VCAM1) Biomarker Activity (AID 2283086)
- Setup conditions: primary human HUVEC with PBMC; actives raise or lower the signal
Calls of active or inactive are those of the source. Rule for the calls: active = hit-call score of the fitted dose curve at least 0.9, where 1 is the maximum; inactive = score below 0.9.
Reply using exactly one outcome from t for active, f for inactive

[Q] Please share the test call associated with `O=S(=O)(O)c1ccc(N=Nc2c(O)ccc3cc(S(=O)(=O)O)ccc23)cc1` .
[A] f

[Q] Same thing, different compound: `O=C(NO)C1(NS(=O)(=O)c2ccc(Oc3ccc(F)cc3)cc2)CCOCC1`
[A] f

[Q] Same thing, different compound: `Cn1c(=O)c2[nH]cnc2n(C)c1=O`
[A] f

[Q] Same thing, different compound: `CC[C@H](C)C(=O)O[C@H]1C[C@H](O)C=C2C=C[C@H](C)[C@H](CC[C@@H](O)C[C@@H](O)CC(=O)O)[C@H]21`
[A] f

[Q] Same thing, different compound: `O=C(O)[C@H](O)[C@@H](O)C(=O)O`
[A] f

[Q] Same thing, different compound: `C[C@]12C=CC(=O)C=C1CC[C@H]1[C@@H]3C[C@@H](O)[C@](O)(C(=O)CO)[C@@]3(C)C[C@H](O)[C@@]12F`
[A] f

[Q] Same thing, different compound: `OC(CCl)CCl`
[A] f

[Q] Same thing, different compound: `Cc1ncc([C@@H](CCCCCCc2ccc3c(n2)NCCC3)CC(=O)O)cn1`
[A] f

[Q] Same thing, different compound: `O=C(O)c1cccc(C(=O)O)c1`
[A] f

[Q] Same thing, different compound: `COCc1nnc(-c2ccc[n+]([O-])c2)n1-c1c(Cl)c(Cl)cc2[nH]c(=O)c(=O)[nH]c12`
[A] f

[Q] Same thing, different compound: `O=C1CN(N=Cc2ccc([N+](=O)[O-])o2)C(=O)N1`
[A] t

[Q] Same thing, different compound: `OC(Cn1cncn1)(Cn1cncn1)c1ccc(F)cc1F`
[A] f

[Q] Same thing, different compound: `OC(O)(C(F)C(O)(O)C(F)(F)F)C(F)(F)F`
[A] f

[Q] Same thing, different compound: `CCCCCCCC/C=C\CCCCCCCC(=O)OC[C@@H](O)[C@H]1OC[C@H](O)[C@H]1O`
[A] f

[Q] Same thing, different compound: `Cc1ccc(S(=O)(=O)NC(=O)NN2CCCCCC2)cc1`
[A] f

[Q] Same thing, different compound: CC(C)CC(C)O (centres undefined)
[A] f

[Q] Same thing, different compound: `C[C@@H](Oc1ccc(CNC(=O)c2cccnc2Oc2ccc3c(c2)OCO3)c(F)c1)C(=O)O`
[A] f

[Q] Same thing, different compound: `OC[C@H]1O[C@@](CO)(O[C@H]2O[C@H](CO)[C@@H](O)[C@H](O)[C@H]2O)[C@@H](O)[C@@H]1O`
[A] f

[Q] Same thing, different compound: `NC(=O)N1c2ccccc2C=Cc2ccccc21`
[A] f

[Q] Same thing, different compound: `Cc1cccc(O)c1C`
[A] f

[Q] Same thing, different compound: `NC(N)=O`
[A] f

[Q] Same thing, different compound: `O=S1(=O)CCCO1`
[A] f

[Q] Same thing, different compound: `OCCOCCOCCO`
[A] f

[Q] Same thing, different compound: `CC(=O)c1ccccc1`
[A] f

[Q] Same thing, different compound: `Cn1cc[nH]c1=S`
[A] f

[Q] Same thing, different compound: `CCCCCCCCCCCCCCCCOS(=O)(=O)O`
[A] f

[Q] Same thing, different compound: `CCCCCCCCCCCCCCO`
[A] t

[Q] Same thing, different compound: `CCn1nc(C)c2c1C(=O)NCC(c1ccc(O)cc1)=N2`
[A] f

[Q] Same thing, different compound: `c1ccc2cc3ccccc3cc2c1`
[A] f

[Q] Same thing, different compound: `O=C(Cl)C(F)(F)C(F)(F)C(F)(F)C(=O)Cl`
[A] f

[Q] Same thing, different compound: `OCc1c[nH]c2ccccc12`
[A] f

[Q] Same thing, different compound: `CCCc1ccccc1`
[A] f

[Q] Same thing, different compound: `CCCCCCOC(=O)CC(CC(=O)OCCCCCC)(OC(=O)CCC)C(=O)OCCCCCC`
[A] f

[Q] Same thing, different compound: `CCCOc1ccc(S(=O)(=O)N2CCN(CC)CC2)cc1-c1nc2c(CC)n(Cc3ccccn3)nc2c(=O)[nH]1`
[A] f

[Q] Same thing, different compound: `OCCNCCO`
[A] f

[Q] Same thing, different compound: `c1ccc2ncccc2c1`
[A] f

[Q] Same thing, different compound: `Cc1nc(-c2ccccn2)ncc1C(=O)Nn1cc(C)c2cc(F)ccc21`
[A] f

[Q] Same thing, different compound: CC(C)CCCCCCOC(=O)C1CCCCC1C(=O)OCCCCCCC(C)C (centres undefined)
[A] f

[Q] Same thing, different compound: `CCCCN1C(=O)[C@@H]([C@H](O)C2CCCCC2)NC(=O)C12CCN(Cc1ccc(Oc3ccc(C(=O)O)cc3)cc1)CC2`
[A] f
